Origin of the recorded values: the supplement of paper PMC9112550

- Test system: Escherichia coli TOP10;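 also: peptides expressed intracellularly from a pBAD plasmid library in pooled LB shake-flask culture, induced with 0.3% L-arabinose, DNA abundance read by NGS, three biological replicates, DESeq2 with apeglm shrinkage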
- ASSAY_OVERVIEW: shrunken log2 fold change of peptide-encoding DNA abundance (4.5 h post-induction vs induction); higher = less antimicrobial activity (less host growth inhibition)
- CONDITION_DESCRIPTION: time post-induction: 4.5 h; library: site-saturation at positions 5, 18, 19, 20
OBSERVED_PROPERTY: shrunken log2 fold change
Lab note: write the figure by itself, no unit.

q: Recorded shrunken log2 fold change for RRIRERPPRLPRPRPRPAYYPRP , please?
a: -0.356

q: Next up: RRIRHRPPRLPRPRPRPIPGPRP
a: -0.158

q: Next up: RRIRCRPPRLPRPRPRPMNHPRP
a: -0.658

q: Next up: RRIRQRPPRLPRPRPRPRQCPRP
a: 0.152

q: Next up: RRIRNRPPRLPRPRPRPWYEPRP
a: -0.0232

q: Next up: RRIRKRPPRLPRPRPRPVWSPRP
a: -0.0616

q: Next up: RRIRIRPPRLPRPRPRPPWKPRP
a: 0.089

q: Next up: RRIRIRPPRLPRPRPRPWTDPRP
a: -0.111

q: Next up: RRIRTRPPRLPRPRPRPVKAPRP
a: 0.0375

q: Next up: RRIRRRPPRLPRPRPRPHECPRP
a: 0.0921

q: Next up: RRIRIRPPRLPRPRPRPGWHPRP
a: -0.0557

q: Next up: RRIRMRPPRLPRPRPRPIITPRP
a: -0.512

q: Next up: RRIRTRPPRLPRPRPRPQLEPRP
a: 0.341

q: Next up: RRIRVRPPRLPRPRPRPMLWPRP
a: 0.0613

q: Next up: RRIRTRPPRLPRPRPRPCQLPRP
a: -0.161

q: Next up: RRIRKRPPRLPRPRPRPNYPPRP
a: -0.175

q: Next up: RRIRPRPPRLPRPRPRPEIVPRP
a: 0.0303

q: Next up: RRIRERPPRLPRPRPRPLWYPRP
a: -0.287

q: Next up: RRIRKRPPRLPRPRPRPWEAPRP
a: 0.0326

q: Next up: RRIRHRPPRLPRPRPRPMGLPRP
a: 0.00622

q: Next up: RRIRFRPPRLPRPRPRPFYVPRP
a: -0.417

q: Next up: RRIRFRPPRLPRPRPRPIAIPRP
a: -0.149

q: Next up: RRIRVRPPRLPRPRPRPRWWPRP
a: 0.0125

q: Next up: RRIRDRPPRLPRPRPRPPHAPRP
a: 0.631

q: Next up: RRIRQRPPRLPRPRPRPQKQPRP
a: 0.057

q: Next up: RRIRKRPPRLPRPRPRPGYSPRP
a: -0.447

q: Next up: RRIRWRPPRLPRPRPRPRKKPRP
a: 0.408

q: Next up: RRIRTRPPRLPRPRPRPGDKPRP
a: 0.137

q: Next up: RRIRERPPRLPRPRPRPCISPRP
a: -0.218

q: Next up: RRIRCRPPRLPRPRPRPICDPRP
a: -0.0093

q: Next up: RRIRKRPPRLPRPRPRPKAVPRP
a: -0.11

q: Next up: RRIRTRPPRLPRPRPRPQKLPRP
a: -0.364
